MEASUREMENT TARGET: GR ligand binding domain / SRC-1 (Homo sapiens, UniProt P04150)
Construct: expressed in transfected cells
Sequence (P04150 524-758 limits assumed): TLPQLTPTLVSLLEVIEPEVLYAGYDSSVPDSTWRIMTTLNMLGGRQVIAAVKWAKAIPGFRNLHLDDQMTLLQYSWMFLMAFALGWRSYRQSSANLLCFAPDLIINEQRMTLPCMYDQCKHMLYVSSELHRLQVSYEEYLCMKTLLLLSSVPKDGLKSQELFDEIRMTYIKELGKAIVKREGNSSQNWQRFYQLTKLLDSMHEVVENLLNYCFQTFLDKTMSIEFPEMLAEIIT
EXPERIMENT NOTES: SRC-1 association assay by mammalian two-hybrid analysis
Type: cell-based
CONDITION PARAMETERS: 100 nM
QUANTITY: SRC-1 recruitment at the highest concentration tested

COMPOUND	DATA VALUE
CCCOC(=O)C1(O)C(C)CC2C3CCC4=CC(=O)C=CC4(C)C3(F)C(O)CC21C (centres unmarked)	significant response
CC1CC2C3CCC4=CC(=O)C=CC4(C)C3(F)C(O)CC2(C)C1(O)C(=O)COC(=O)Nc1ccc(F)cc1 (centres unmarked)	significant response
CC1CC2C3CCC4=CC(=O)C=CC4(C)C3(F)C(O)CC2(C)C1(O)C(=O)NCc1ccccc1 (centres unmarked)	significant response
CCCCCCNC(=O)OCC(=O)C1(O)C(C)CC2C3CCC4=CC(=O)C=CC4(C)C3(F)C(O)CC21C (centres unmarked)	significant response

The reported measurements were obtained from patent US7763596B2.
